- test system: T1, huNav1.7α + β1-β2-β3 (human, UniProt Q15858 1-1988; A5A6L6 19-218; O60939 30-215; Q2KI11 23-215)
- T1 construct: also called huNav1.7-beta1-beta2-beta3; huNav1.7-β1-β2-β3
- assay: binding FACS, CHO FlpIn
parameter measured: EC50 (nM)

Return reported EC50; argument: F010302335 (VHH) VHH: EVQLVESGGGVVQPGGSLRLSCAASSRQFIRDVFTGWYRRAPGKQRELVARIYESGNTQYADSAKGRFTISRDNAKKTVYLQMNSLRPEDTALYYCLFSGTISTGREYRSGDYWGQGTLVTVSS
4.1

Return reported EC50; argument: F010302352 (VHH) VHH: EVQLVESGGGVVQPGGSLRLSCAASHRQFIRDVFTGWYRRAPGKQRELVARIYNEGNTQYADSVKGRFTISRDNAKKTVYLQMNSLRPEDTALYYCLFSGTISTGREYRSGDYWGQGTLVTVSS
3.6

Return reported EC50; argument: F010302334 (VHH) VHH: EVQLVESGGGVVQPGGSLRLSCAASSRQFIRDVFTGWYRRAPGKQRELVARIYNEGNTQYADSAKGRFTISRDNAKKTVYLQMNSLRPEDTALYYCLFSGTISTGREYRSGDYWGQGTLVTVSS
4

Return reported EC50; argument: F010302363 (VHH) VHH: EVQLVESGGGVVQPGGSLRLSCAASHRAFIRDVFTGWYRQAPGKQRELVARIYEGGNTQYADSVKGRFTISRDNAKKTVYLQMNSLRPEDTALYYCLFSGTISTGREYRSGDYWGQGTLVTVSS
4.2

Return reported EC50; argument: F010302350 (VHH) VHH: EVQLVESGGGVVQPGGSLRLSCAASSRQFIRDVFTGWYRRAPGKQRELVARIYNEGNTQYADSVKGRFTISRDNAKKTVYLQMNSLRPEDTALYYCLFSGTISTGREYRSGDYWGQGTLVTVSS
3.5

Return reported EC50; argument: F010301868 (VHH, also called F0103464B09(L11V, S68T, T79Y, R81Q, S82aN, N82bS, K83R, G88A, V89L)) VHH: EVQLVESGGGVVQPGGSLRLSCATTSRAFIRDVFTGWYRRVPGKERELVARIYNGGNTNYADFAKGRFTISRDNAKKMVYLQMNSLRPEDTALYYCLFSGTINTGREYRSGDYWGQGTLVTVSS
6.3

Return reported EC50; argument: F010302353 (VHH) VHH: EVQLVESGGGVVQPGGSLRLSCAASHRQFIRDVFTGWYRRAPGKQRELVARIYEGGNTQYADSVKGRFTISRDNAKKTVYLQMNSLRPEDTALYYCLFSGTISTGREYRSGDYWGQGTLVTVSS
4.2

Return reported EC50; argument: F010301871 (VHH, also called F0103464B09(L11V, T24A, S68T, T79Y, R81Q, S82aN, N82bS, K83R, AG88, V89L)) VHH: EVQLVESGGGVVQPGGSLRLSCAATSRAFIRDVFTGWYRRVPGKERELVARIYNGGNTNYADFAKGRFTISRDNAKKMVYLQMNSLRPEDTALYYCLFSGTINTGREYRSGDYWGQGTLVTVSS
5.8
